System: RPMI-8226 leukemia
Test: NCI-60 one-dose screen, 48 h
Details: 10 µM unless noted
This is part of a sample that, as a whole, favours compounds with a hit. Of some 83,000 tested, about 20% had one in any assay. Activity calls are given as the source filed them. How the source made its calls: active means growth percent below 10; inactive means the rest.
Pick from active, inactive when you respond.

Check out these entries, answers already filled in.
molecule: CC(=O)O[C@H](C[C@H](C(C)C)N(C)C(=O)[C@@H](NC(=O)[C@H]1CCCCN1C)C(C)C)c1nc(C(=O)NC2CCC(C(=O)O)CC2)cs1 (some centres not stated)
subject of test: RPMI-8226 leukemia
class label: inactive
--
molecule: Clc1cccc(NCOOC2(OOCNc3cccc(Cl)c3)CCCCCC2)c1
subject of test: RPMI-8226 leukemia
class label: inactive
--
molecule: CCCCCSC1C2C(=O)C(Br)=CC13CCNc1c(O)c4c5c(c13)=[N+]2CCC=5C=N4 (configuration not stated)
subject of test: RPMI-8226 leukemia
class label: active

Dear all, I need the recorded test outcome for O=C(CC1(O)C(=O)Nc2ccccc21)c1ccc(C(=O)NCC2CCC3(CC2)OOC2(CCCCC2)OO3)cc1 (configuration not stated) , thank you.
inactive

Dear all, I need the recorded test outcome for `CCOC(=O)[C@@H](C)C[C@H](Cc1ccccc1)NC(=O)c1csc([C@@H](C[C@H](C(C)C)N(C)C(=O)[C@@H](NC(=O)[C@H]2CCCCN2C)C(C)(C)CC)OC(C)=O)n1` , thank you.
active

Dear all, I need the recorded test outcome for `CC1=C(CCCOC(=O)[C@H](N)CC(C)C)C2=C(C)C3(CC3)[C@@](C)(O)C(=O)C2=C1` , thank you.
inactive

Dear all, I need the recorded test outcome for `COc1ccc(/C=C\c2cc(OC)c(OC)c(OC)c2)cc1NC(=O)/C=C/c1cc(OC)c(OC)c(OC)c1` , thank you.
inactive

###

System: SW-620 colon
Experiment: NCI-60 one-dose screen, 48 h (100 = growth as untreated, 0 = no growth, -100 = all killed)
Settings: 10 µM unless noted
Compounds without any hit were thinned out: in the full panel of roughly 83,000, 20% have a hit. The source made the active and inactive calls. The calls were made as follows: active = growth percent below 10; inactive = the rest.
# Lookup of reported growth keyed by entry

compound: N#CC1C(C#N)C2CCC1C1C2N1c1ccccc1 (centres undefined)
growth: 100% (inactive)
--
compound: COc1cccc2c1c(C(=O)C(=O)Nc1cc(C)no1)cn2Cc1ccc(F)cc1
growth: 15.5% (inactive)
--
compound: CCCCCC1(CCBr)C(=O)NC(=O)NC1=O
growth: 101% (inactive)
--
compound: CCn1c2ccccc2c2cc(C(=O)c3cccc4c3CCCN4)ccc21
growth: 96.1% (inactive)
--
compound: N#CC1(c2ccccc2)CCN(Cc2ccccc2)CC1
growth: 101% (inactive)

Fill blank: measured growth of the compound `CCOP(=O)(Cc1ccc(C#N)cc1)OCC` is ____.
99.9% (inactive)

Fill blank: measured growth of the compound `CC1=C(CNO)C2=C(C)C3(CC3)[C@@](C)(O)C(=O)C2=C1` is ____.
65.7% (inactive)

Fill blank: measured growth of the compound `CC(=O)[C@H]1CC[C@H]2[C@@H]3CC[C@H]4C[C@H](N)CC[C@]4(C)[C@H]3CC[C@]12C` is ____.
72.2% (inactive)

###

System: ACHN renal
Test: NCI-60 one-dose screen, 48 h (100 = growth as untreated, 0 = no growth, -100 = all killed)
Details: 10 µM unless noted
About 83,000 compounds went through this panel and 20% of them were active in at least one assay; those are over-represented in the sample as a whole. Active and inactive are the calls of the source. How the source made its calls: active means growth percent below 10; inactive means the rest.
# Lookup of reported growth keyed by entry

Hi! What's the reported growth for `O=C1NC(=O)C(=Cc2ccc(OCCCCC3CCCCC3)c(Cl)c2)C(=O)N1` on ACHN renal?
104% (inactive)

Hi! What's the reported growth for `CCCCCCC(=O)NC1=C(N2CC2)C(=O)C(NC(=O)CCCCCC)=C(N2CC2)C1=O` on ACHN renal?
32.9% (inactive)

Hi! What's the reported growth for N#Cc1c(Br)n(C2OC(CO)C(O)C2O)c2ncnc(N)c12 (stereo not given) on ACHN renal?
78.4% (inactive)

Hi! What's the reported growth for `COC(=O)[C@@H](C)C[C@H](Cc1ccccc1)NC(=O)c1csc(CC[C@H](C(C)C)N(C)C(=O)[C@@H](NC(=O)[C@H]2CCCCN2C)C(C)C)n1` on ACHN renal?
45.2% (inactive)

Hi! What's the reported growth for `O=[N+]([O-])/C=C\c1ccc(Cl)c(Cl)c1` on ACHN renal?
78.4% (inactive)

###

# Lookup of reported growth keyed by entry
Tested on: MCF7 breast
Assay: NCI-60 one-dose screen, 48 h (100 = growth as untreated, 0 = no growth, -100 = all killed)
Details: 10 µM unless noted
About 83,000 compounds went through this panel and 20% of them were active in at least one assay; those are over-represented in the sample as a whole.
Give the value, in units of %, as a plain number.

Worked cases, growth given:
molecule: Cc1ccc(Nc2nc3c(s2)C2=CC[C@@H]4[C@H](CC[C@]5(C)C(=O)CC[C@@H]45)[C@@]2(C)CC3)cc1
unit text: %
growth: 13.9

molecule: CC(=O)OC1CCC2C3CCC4=C/C(=N/OC(=O)c5ccc(N(CCCl)CCCl)cc5)CCC4(C)C3CC(C)C12 (stereo unspecified)
unit text: %
growth: 99.3

molecule: COC(=O)[C@H](Cc1c[nH]c2ccccc12)NC(=O)[C@@H](OC)[C@@H]1Cc2cc3cc(OC4CC(OC5CC(O)C(O)C(C)O5)C(O)C(C)O4)c(C)c(O)c3c(O)c2C(=O)[C@H]1OC1CC(OC2CC(OC3CC(C)(O)C(O)C(C)O3)C(O)C(C)O2)C(O)C(C)O1 (stereo partly specified)
unit text: %
growth: 5.98

molecule: COc1ccc(/C=C\c2cc(OC)c(OC)c(OC)c2)cc1OCC(=O)Nc1nc2ccc(C(F)(F)F)cc2s1
unit text: %
growth: 15.1

molecule: CCCCCCC(=O)NC1=C(N2CC2)C(=O)C(NC(=O)CCCCCC)=C(N2CC2)C1=O
unit text: %
growth: 19.1

Please find the next molecule below.
Fill blank: measured growth of the molecule `COC(=O)[C@@H](C)C[C@H](Cc1ccc(F)cc1)NC(=O)c1csc([C@@H](C[C@H](C(C)C)N(C)C(=O)[C@@H](NC(=O)[C@H]2CCCCN2C)C2CC2)OC(C)=O)n1` is ____.
19.6

###

Test system: SW-620 colon
Assay: NCI-60 one-dose screen, 48 h
Settings: 10 µM unless noted
This is part of a sample that, as a whole, favours compounds with a hit. Of some 83,000 tested, about 20% had one in any assay. Activity calls are given as the source filed them. Rule for the calls: active = growth percent below 10; inactive = the rest.
Pick from Y (active), N (inactive) when you respond.

Check out these entries, answers already filled in.
molecule: CCCCCCCCCCCCCCCCCC1OC[C@H](COC(=O)O[C@@H](C(=O)O[C@H]2C[C@@]3(O)[C@@H](OC(=O)c4ccccc4)[C@@H]4[C@]5(OC(C)=O)CO[C@@H]5C[C@H](O)[C@@]4(C)C(=O)[C@H](OC(C)=O)C(=C2C)C3(C)C)[C@@H](NC(=O)c2ccccc2)c2ccccc2)O1 (some centres undefined)
subject of test: SW-620 colon
class label: N

molecule: CCN(CC)c1ccc2c(c1)OC(N)=C(C#N)C2c1cc(OC)c2c(c1)OCO2 (centres undefined)
subject of test: SW-620 colon
class label: N

molecule: O=C(Nc1ccc(Br)cc1)c1cc(Br)cc(Br)c1O
subject of test: SW-620 colon
class label: Y

molecule: COC(=O)C1OC(Oc2ccc(N(CCCl)CCCl)cc2)C(OC(C)=O)C(OC(C)=O)C1OC(C)=O (centres undefined)
subject of test: SW-620 colon
class label: N

molecule: N/C(=N/N=C/c1ccncc1)N[N+](=O)[O-]
subject of test: SW-620 colon
class label: N

Dear all, I need the recorded test outcome for `CC(=O)c1ccc(C(=O)NCC2CCC3(CC2)OOC2(CCCCC2)OO3)cc1` , thank you.
N

Dear all, I need the recorded test outcome for `c1ccc(CSC(c2ccccc2)c2ccccc2)cc1` , thank you.
N

Dear all, I need the recorded test outcome for `CC1(C)N=C(N)N=C(N)N1c1cccc(CCCCc2ccc(Cl)c(S(=O)(=O)F)c2)c1` , thank you.
N

Dear all, I need the recorded test outcome for `Cc1ccccc1NC(=NCCCN1CC1)Nc1ccccc1C` , thank you.
N

Dear all, I need the recorded test outcome for `CCCCCCCC[n+]1ccc2ccccc2c1` , thank you.
N

Dear all, I need the recorded test outcome for CC(=O)O[C@H]1C(=O)[C@@]2(C)[C@H]([C@H](OC(=O)c3ccccc3)[C@]3(O)C[C@H](OC(=O)[C@H](OC(=O)OCC4COC(C)(C)O4)[C@@H](NC(=O)c4ccccc4)c4ccccc4)C(C)=C1C3(C)C)[C@]1(OC(C)=O)CO[C@@H]1C[C@@H]2O (some centres undefined) , thank you.
N

Dear all, I need the recorded test outcome for `Nc1ccc(Cl)cc1` , thank you.
N

This collection of values is drawn from PubChem BioAssay (NCI).
